FYI, the data here is from patent US12534531.

Listed here: items and their measured pKd.
- Target: T1, soluble human PD-1 (the extracellular domain of human PD-1 fused to a His tag) (human, UniProt Q15116 25-170)
- T1 construct: also called shPD-1 His; shPD-1-His; not shown: His tag
- T1 sequence (Q15116 25-170): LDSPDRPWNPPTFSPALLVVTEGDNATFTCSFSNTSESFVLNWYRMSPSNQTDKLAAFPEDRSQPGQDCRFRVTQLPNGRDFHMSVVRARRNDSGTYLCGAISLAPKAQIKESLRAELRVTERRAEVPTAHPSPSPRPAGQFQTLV
- Protocol Details: Biacore, mAb captured on Protein A, analyte shPD-1 His
Reminder that pKd means the negative base-10 logarithm of the concentration expressed in mol/L.

# example entries with known answers
{"columns": ["Binder", "Reported"],
 "data": [
  ["hPD-1 mAb 15, constant region not named where tested (antibody, V domains shown, also called humanized PD-1 mAb 15) VH: EVQLVESGGGLVRPGGSLRLSCAASGFTFSSYLISWVRQAPGKGLEWVAAISGGGADTYYADSVKGRFTISRDNAKNSLYLQMNSLRAEDTATYYCARRGTYAMDYWGQGTLVTVSS VL: DIQMTQSPSSLSASVGDRVTITCLASQTIGTWLAWYQQKPGKAPKLLIYAATSLADGVPSRFSGSGSGTDFTFTISSLQPEDFATYYCQQLYSIPWTFGQGTKLEIK", 7.88],
  ["PD-1 mAb 15 (antibody, V domains shown, Murine monoclonal antibody) VH: EVMLVESGGGLVKPGGSLKLSCAASGFIFSSYLISWVRQTPEKRLEWVAAISGGGADTYYADSVKGRFTISRDNAKNTLYLQMSSLRSEDTALYYCTRRGTYAMDYWGQGTSVTVSS VL: DIQMTQSPASQSASLGESVTITCLASQTIGTWLAWYQQKPGKSPQLLIYAATSLADGVPSRFSGSGSGTKFSFKISSLQAEDFVNYYCQQLYSIPWTFGGGTKLEIK", 8.54]
]}

Next, consider the following binder.
Ask: For the binder shown here, hPD-1 mAb 2, constant region not named where tested (antibody, V domains shown, also called humanized PD-1 mAb 2) VH: EVQLVESGGGLVQPGGSLRLSCAASGFVFSSFGMHWVRQAPGKGLEWVAYISSGSMSISYADTVKGRFTISRDNAKNTLYLQMNSLRTEDTALYYCASLSDYFDYWGQGTTVTVSS VL: DVVMTQSPLSLPVTLGQPASISCRSSQSLVHSTGNTYLHWYLQKPGQSPQLLIYRVSNRFSGVPDRFSGSGSGTDFTLKISRVEAEDVGVYYCSQTTHVPWTFGQGTKLEIK , give the reported pKd.
Reply: 8.30
